Target: T1, CD81 (UniProt P60033 1-236, limits assumed)
T1 construct: whole, on cells; also called CD81 receptor
T1 sequence (looked up): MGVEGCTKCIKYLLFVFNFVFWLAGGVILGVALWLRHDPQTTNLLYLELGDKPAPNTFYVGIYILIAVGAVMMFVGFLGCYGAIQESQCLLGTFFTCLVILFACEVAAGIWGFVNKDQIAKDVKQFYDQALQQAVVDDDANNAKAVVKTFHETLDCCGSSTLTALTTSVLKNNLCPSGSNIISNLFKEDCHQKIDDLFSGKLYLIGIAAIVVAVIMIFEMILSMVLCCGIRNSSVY
Test: cell ELISA;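 also: antibody binding to HuH7 cells expressing CD81 versus a CD81-negative HuH7 control line, bound antibody detected by secondary reagent, absorbance at 450 nm with 620 nm reference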
attributeMeasured: ELISA data
API doc: respond with a numeric literal and nothing else, no unit.

Request: Given the binder CD81K13 HC CD81K13 / LC 03-hVK_1_9 (antibody, V domains shown, human constant region) VH: EVRLHQSAAQLVQPGASVRLSCTTSGFNFKDSYLHWVKQRPAQGLEWIGRIDTGNGNVKFDPKFQDKATITTDIPSMTAYLHLSNLTSEDTAVYYCVPYGYGFHSWGDGTTLTVSS VL: DIQLTQSPSFLSASVGDRVTITCRASENIYRTLAWYQQKPGKAPKLLIYAATTLASGVPSRFSGSGSGTEFTLTISSLQPEDFATYYCQHFWGTPWTFGQGTKVEIK , what is its reported ELISA data?
Result: 0.949

Request: Again, but for CD81K13 HC 01-hVH_1_f / LC 03-hVK_1_9 (antibody, V domains shown, human constant region) VH: EVQLVQSGAEVKKPGATVKISCKVSGYTFTDSYMHWVQQAPGKGLEWMGRIDTGNGNVKFDPKFQGRVTITADTSTDTAYMELSSLRSEDTAVYYCAPYGYGFHSWGQGTLVTVSS VL: DIQLTQSPSFLSASVGDRVTITCRASENIYRTLAWYQQKPGKAPKLLIYAATTLASGVPSRFSGSGSGTEFTLTISSLQPEDFATYYCQHFWGTPWTFGQGTKVEIK
Result: 0.294

Request: And for CD81K13 HC 5b-hVH_1_69-GA / LC 1b-hVK_3_15 (antibody, V domains shown, human constant region) VH: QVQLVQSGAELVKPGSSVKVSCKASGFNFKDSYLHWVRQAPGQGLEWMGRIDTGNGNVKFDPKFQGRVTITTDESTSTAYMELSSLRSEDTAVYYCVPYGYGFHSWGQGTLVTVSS VL: EIVMTQSPATLSVSPGERATLSCRASENIYRTLAWYQQKPGQAPRLLIYGATTLADGIPARFSGSGSGTEFTLTISSLQSEDFAVYYCQHFWGTPWTFGQGTKVEIK ?
Result: 0.648
